Where these numbers come from: PubChem BioAssay (NCI)

System: NCI-H522 lung
Assay: NCI-60 one-dose screen, 48 h (100 = growth as untreated, 0 = no growth, -100 = all killed)
Settings: 10 µM unless noted
This is part of a sample that, as a whole, favours compounds with a hit. Of some 83,000 tested, about 20% had one in any assay. Activity calls are given as the source filed them. How the source made its calls: active means growth percent below 10; inactive means the rest.
MEASURED_ATTRIBUTE: growth

1. COc1ccc(C2=CC(c3cc(OC)c(OC)c(OC)c3)n3ncnc3N2)cc1 (centres undefined)	-13.3% (active)
2. O=C(O)c1ccc(-c2ccc(/C=N/Nc3nc(Nc4ccccc4)nc(N4CCCCC4)n3)o2)cc1	43% (inactive)
3. COc1ccc(CCN(CC(=O)N(CC(N)=O)C2CCC[C@@H]2OCc2ccccc2)C(=O)CN(C(=O)CN(CCc2ccc(Cl)cc2)C(=O)CN(C(=O)CN(C)Cc2ccccc2F)[C@H](C)C2CCCCC2)[C@H](C)C2CCCCC2)cc1OC (some centres undefined)	24.5% (inactive)
4. O=C(NNC(=O)c1nc2cc(F)ccc2n2cccc12)c1cnccn1	56.1% (inactive)
